// data source = paper PMC10377574

# assay overview: Biodistribution in mice bearing PC-3 tumors
# conditions: Balb/c nu/nu, mouse, blood, iv, 40 pmol, total radioactivity, Blood uptake, 1 h pi, n = 4
value kind: tissue uptake at 1 h
Returns: string containing the numeric result and its unit.

Request: Which tissue uptake at 1 h value belongs to CC(C)C[C@H](NC(=O)C[C@H](O)[C@H](CC(C)C)NC(=O)[C@H](Cc1c[nH]cn1)NC(=O)CN(C)C(=O)[C@@H](NC(=O)[C@H](C)NC(=O)[C@H](Cc1c[nH]c2ccccc12)NC(=O)[C@H](CCC(N)=O)NC(=O)[C@@H](Cc1ccccc1)NC(=O)COCCOCCNC(=O)CCC(C(=O)O)N1CCN(CC(=O)O)CCN(CC(=O)O)CCN(CC(=O)O)CC1)C(C)C)C(N)=O (mixture of isomers) [[^111In]In-AU-RM26-M1, [^111In]In-DOTAGA-PEG2-(Sar^11)RM26, metal not drawn] ?
Result: 0.6 %ID/g

====

# assay overview: Biodistribution in negative control mice bearing DU-145 tumors
# Type: in vivo
# conditions: Balb/c nu/nu, mouse, pancreas, iv, 40 pmol, total radioactivity; 1 h pi, DU-145 tumor-bearing mice, n = 4; read-out: pancreas uptake, negative control group
value kind: tissue uptake at 1 h (%ID/g)
One number for each entry, in %ID/g.

Request: What value of tissue uptake at 1 h has been reported for the following compound? CC(C)C[C@H](NC(=O)C[C@H](O)[C@H](CC(C)C)NC(=O)[C@H](Cc1c[nH]cn1)NC(=O)CN(C)C(=O)[C@@H](NC(=O)[C@H](C)NC(=O)[C@H](Cc1c[nH]c2ccccc12)NC(=O)[C@H](CCC(N)=O)NC(=O)[C@@H](Cc1ccccc1)NC(=O)COCCOCCNC(=O)CCC(C(=O)O)N1CCN(CC(=O)O)CCN(CC(=O)O)CCN(CC(=O)O)CC1)C(C)C)C(N)=O (mixture of isomers) [[^111In]In-AU-RM26-M1, [^111In]In-DOTAGA-PEG2-(Sar^11)RM26, metal not drawn]
Result: 2.2

====

# assay overview: Biodistribution in mice bearing PC-3 tumors
# conditions: Balb/c nu/nu, mouse, small intestine, iv, 40 pmol, total radioactivity, Small intestine uptake, 24 h pi, n = 4
value kind: tissue uptake at 24 h (%ID/g)
Give bare numbers, in %ID/g.

Request: For CC(C)C[C@H](NC(=O)C[C@H](O)[C@H](CC(C)C)NC(=O)[C@H](Cc1c[nH]cn1)NC(=O)CN(C)C(=O)[C@@H](NC(=O)[C@H](C)NC(=O)[C@H](Cc1c[nH]c2ccccc12)NC(=O)[C@H](CCC(N)=O)NC(=O)[C@@H](Cc1ccccc1)NC(=O)COCCOCCNC(=O)CCC(C(=O)O)N1CCN(CC(=O)O)CCN(CC(=O)O)CCN(CC(=O)O)CC1)C(C)C)C(N)=O (mixture of isomers) [[^111In]In-AU-RM26-M1, [^111In]In-DOTAGA-PEG2-(Sar^11)RM26, metal not drawn] , what is its reported tissue uptake at 24 h?
Result: 0.03

====

# assay overview: Biodistribution in mice bearing PC-3 tumors
# conditions: Balb/c nu/nu, mouse, blood, iv, 40 pmol, total radioactivity, Blood uptake, 24 h pi, n = 4
value kind: tissue uptake at 24 h (%ID/g)
Answers are plain numbers, in %ID/g.

Request: Return reported tissue uptake at 24 h; argument: CC(C)C[C@H](NC(=O)C[C@H](O)[C@H](CC(C)C)NC(=O)[C@H](Cc1c[nH]cn1)NC(=O)CN(C)C(=O)[C@@H](NC(=O)[C@H](C)NC(=O)[C@H](Cc1c[nH]c2ccccc12)NC(=O)[C@H](CCC(N)=O)NC(=O)[C@@H](Cc1ccccc1)NC(=O)COCCOCCNC(=O)CCC(C(=O)O)N1CCN(CC(=O)O)CCN(CC(=O)O)CCN(CC(=O)O)CC1)C(C)C)C(N)=O (mixture of isomers) [[^111In]In-AU-RM26-M1, [^111In]In-DOTAGA-PEG2-(Sar^11)RM26, metal not drawn]
Result: 0.02
